Exercise: state measured cytotoxicity at 70.5 h for each of the compounds provided.
test: Human HepG2 cell viability assay in 384 well format; type: toxicity, cell-based; set-up: dose 125 nL, time 70.5 hour; concentration not given beside the values; details: HepG2 cells, read-out: Inhibition
One number for each entry, in %.

The examples below pair each entry with its known result.
COc1cccc(CNC(=O)c2cc(C)nc(N3CCCCC3)n2)c1: -9.69
N#Cc1cn(CCCN2CCc3ccccc3C2)c(=O)[nH]c1=O: -5.98

Batch lookup, cytotoxicity at 70.5 h per entry.
1. COCCOCC(=O)NC(C#N)c1cc(Cl)cc(Cl)c1 (stereo unspecified)
2. Fc1cccc(CN2CCC3(CCCN3c3ncccn3)CC2)c1
3. COc1cccc2c1ccn2CCNC(=O)C1CCC1

### Response
19.4
5.31
-13.3

### Prompt Return reported cytotoxicity at 70.5 h; argument: CN(C(=O)Nc1cccnc1)C1CCN(c2ccc(Cl)cc2)CC1
### Response 0.04
